Taken from PubChem BioAssay (NCI).

Test system: OVCAR-5 ovarian
procedure.text: NCI-60 one-dose screen, 48 h (100 = growth as untreated, 0 = no growth, -100 = all killed)
reported.conditions: 10 µM unless noted
Compounds without any hit were thinned out: in the full panel of roughly 83,000, 20% have a hit.
Output 1 for growth not less than 60%; output -1 otherwise.

compound="CC12CC[C@@H]3[C@]4(C)COC(c5cn[nH]c5-c5ccc(Br)cc5)O[C@@H]4CC[C@@]3(C)[C@@H]1CC(C1=CCOC1=O)O2 (stereo not given in full)" class_assignment=1
compound=COc1ccc(/C=C2\C(=N)N=C(SCc3nc4ccccc4[nH]3)NC2=O)cc1 class_assignment=1
compound=CC(=O)Nc1ccc(-n2cnc3ccc(-c4ccc(O)cc4)cc32)cc1 class_assignment=1
compound=CCCSc1nc(NCCc2c[nH]c3ccccc23)c(C#N)c(-c2ccc(OC)cc2)n1 class_assignment=1
compound="Cc1sc2c(c1C)C(c1ccc(Cl)cc1)=N[C@@H](CC(=O)NCCCCCNC(=O)COc1ccc(C3CCC(=O)NC3=O)cc1)c1nnc(C)n1-2 (stereo not given in full)" class_assignment=-1
compound=CC(=O)NNc1ccc2nnc(-c3ccccc3)n2n1 class_assignment=1
compound=CC(=O)N1CCN(Cc2ccc3c(NNC(=O)c4cnccn4)nc4cc(F)ccc4n23)CC1 class_assignment=-1
compound=O=C(c1ccccc1)c1ccc2nc(-c3ccc(F)cc3)[nH]c2c1 class_assignment=-1
compound="C=C1CC[C@@H]2[C@]3(C)COC(c4cn[nH]c4-c4ccc(F)cc4)O[C@@H]3CC[C@@]2(C)[C@@H]1C/C=C1/C(=O)OCC1O (stereo not given in full)" class_assignment=-1
compound=c1ccc(-c2csc(Nc3cccc(Nc4nc(-c5ccccc5)cs4)c3)n2)cc1 class_assignment=1
compound=C#C[C@]1(O)CC[C@H]2[C@@H]3CC=C4c5sc(-c6ccc(O)c(O)c6)nc5CC[C@]4(C)[C@H]3CC[C@@]21C class_assignment=-1
compound=Cc1cccc(-c2nc(Nc3cccc(S(N)(=O)=O)c3)c3ccccc3n2)c1 class_assignment=1

* * *

Test system: SF-268 CNS
procedure.text: NCI-60 one-dose screen, 48 h
reported.conditions: 10 µM unless noted
About 83,000 compounds went through this panel and 20% of them were active in at least one assay; those are over-represented in the sample as a whole. The source made the active and inactive calls. How the source made its calls: active means growth percent below 10; inactive means the rest.
Possible outcomes: active, inactive

smiles=Brc1ccc(-c2n(Cc3ccc4ccccc4c3)c(-c3ccccc3)c(-c3ccccc3)[n+]2Cc2ccc3ccccc3c2)cc1 system_tested="SF-268 CNS" class_assignment=active
smiles=COc1ccc(NC(=O)Nc2ccc(OCc3ccc(F)cc3)cc2)cc1 system_tested="SF-268 CNS" class_assignment=inactive
smiles=Cc1cc2nc3c([nH]c2cc1C)c1ccc(=O)cc1n3CCN(C)C system_tested="SF-268 CNS" class_assignment=inactive
smiles=Cc1cccc(Nc2nc3ccccc3nc2/C=C/c2ccc(F)cc2)c1 system_tested="SF-268 CNS" class_assignment=inactive
smiles=Cc1ccc(C(=O)NN2C(=O)/C(=C/C=C/c3ccc([N+](=O)[O-])o3)SC2=S)cc1 system_tested="SF-268 CNS" class_assignment=active
smiles=COc1cc(/C=C/C(=O)c2ccc(C)cc2)ccc1Oc1nc(Nc2ccc(F)cc2)nc(N(C)C)n1 system_tested="SF-268 CNS" class_assignment=inactive
smiles=CN(C)c1ccnc(CNCCSC2(c3ccc(C(F)(F)F)cc3)c3ccccc3CCc3ccccc32)c1 system_tested="SF-268 CNS" class_assignment=inactive
smiles=Cc1cc2nc3c4ccccc4n(CC4=NCCN4)c3nc2cc1C system_tested="SF-268 CNS" class_assignment=inactive
smiles=COc1ccc(-c2ccnc(SCc3cc4ccccc4[nH]c3=O)n2)cc1OC system_tested="SF-268 CNS" class_assignment=inactive
